Method Notes: Cell viability XTT assay
Format: cell-based
Measurement Context: rat, PC12 cells, PC12, 1 μM, read-out: Viability of treated cells relative to untreated control
Below, each entry is listed alongside its reported viability at 3 days, 1 µM.
Numbers only; they are read as %.

COc1ccc2c3ccnc(Cl)c3n(CC#N)c2c1 [AnnH75]; 94
COc1ccc2c3ccnc(C)c3n(CC#N)c2c1 [AnnH31]; 89
COc1ccc2c3ccnc(C)c3n(C(C)C#N)c2c1 (stereo not shown) [AnnH43]; 88

Consider the record given below.
Exercise: Read off the recorded viability at 3 days, 1 µM for COc1ccc2c(c1)[nH]c1c(Cl)nccc12 [AnnH24]
Key: 95

====

Measured viability at 3 days, 10 µM of individual entries
Method Notes: Cell viability XTT assay
Format: cell-based
Measurement Context: human, SH-SY5Y cells, 10 μM, read-out: Viability of treated cells relative to untreated control
Note: a bare number is incomplete; add the unit.

As a guide, the following entries are already answered.
COc1ccc2c(c1)[nH]c1c(Cl)nccc12 [AnnH24]; 45%
COc1ccc2c3ccnc(C)c3n(C(C)C#N)c2c1 (stereo not drawn) [AnnH43]; 45%

Exercise: Fill in reported viability at 3 days, 10 µM for this entry: COc1ccc2c3ccnc(C)c3n(CC#N)c2c1 [AnnH31]
Key: 38%

====

Method Notes: Cell viability XTT assay
Format: cell-based
Measurement Context: human, HeLa cells, 10 μM, read-out: Viability of treated cells relative to untreated control
Below, each entry is listed with its recorded viability at 3 days, 10 µM.
Unit % implied. Number only.

COc1ccc2c(c1)[nH]c1c(Cl)nccc12; 72

Exercise: Look up viability at 3 days, 10 µM of COc1ccc2c3ccnc(C)c3n(C(C)C#N)c2c1 (stereo not drawn) and report it.
Key: 66

Exercise: Please report the measured viability at 3 days, 10 µM for `COc1ccc2c3ccnc(C)c3n(CC#N)c2c1`
Key: 55

====

Residual activity (% of control) HIPK2 values, listed per item
Target Under Test: UniProt Q9H2X6
Sequence (Q9H2X6 180-533): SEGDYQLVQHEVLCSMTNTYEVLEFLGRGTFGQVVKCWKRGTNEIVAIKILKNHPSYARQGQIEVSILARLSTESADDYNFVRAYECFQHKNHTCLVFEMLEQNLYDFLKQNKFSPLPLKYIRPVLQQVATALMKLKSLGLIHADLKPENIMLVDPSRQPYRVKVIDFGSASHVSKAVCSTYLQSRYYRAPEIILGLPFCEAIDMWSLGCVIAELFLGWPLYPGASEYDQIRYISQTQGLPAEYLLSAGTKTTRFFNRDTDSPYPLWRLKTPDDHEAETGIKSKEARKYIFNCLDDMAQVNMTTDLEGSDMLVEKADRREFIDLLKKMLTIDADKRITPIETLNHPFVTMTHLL
Method Notes: Kinase-GLO luminescent kinase assay
Format: biochemical
Design: made in house; host or cells: E. coli
Measurement Context: 10 μM compound; means of at least 3 measurements

Cc1nccc2c3ccc(Cl)c(Cl)c3n(CC#N)c12; 33 % of control
C#CCn1c2c(C)nccc2c2ccc(Cl)c(Cl)c21; 74 % of control
COc1ccc2c3ccnc(C)c3n(C(C)C#N)c2c1 (centres unmarked); 84 % of control
Nc1ncnc2c1c(I)cn2[C@@H]1O[C@H](CO)[C@@H](O)[C@H]1O [IoT, 5-iodotubercidin, reference compound]; 20 % of control
COc1ccc2c3ccnc(C)c3n(CC#N)c2c1; 70 % of control
COc1ccc2c3ccnc(Cl)c3n(CC#N)c2c1; 85 % of control

Exercise: Please list Residual activity (% of control) HIPK2 recorded for the compound `C#CCn1c2cc(OC)ccc2c2ccnc(Cl)c21`
Key: 97 % of control

Exercise: State its Residual activity (% of control) HIPK2 for this compound: `COc1ccc2c3ccnc(C)c3n(CCC#N)c2c1`
Key: 96 % of control

Exercise: In one line, give reported Residual activity (% of control) HIPK2 of the entry `COc1ccc2c(c1)[nH]c1c(/C=C/c3ccccc3)nccc12` .
Key: 95 % of control

Exercise: Give a short answer stating reported Residual activity (% of control) HIPK2 for `COc1ccc2c(c1)[nH]c1c(Cl)nccc12` .
Key: 91 % of control

Exercise: Specify measured Residual activity (% of control) HIPK2 for `COc1ccc2c(c1)[nH]c1c(C)nccc12` .
Key: 79 % of control
